In this section we review reported Bliss interaction score values for a set of compounds.
Test system: S. aureus Newman
PROCEDURE_TEXT: Bliss interaction score (quartile over a dose matrix) (fitness difference); higher = more antagonism (negative = synergy)
Form rule: numeric answer, no unit written next to it.

The examples below pair each entry with its known result.
INSERT INTO measurements (compound, recorded_measurement) VALUES
  ('Clc1ccc(COC(Cn2ccnc2)c2ccc(Cl)cc2Cl)c(Cl)c1 (stereo not drawn) [Miconazole] + C/C(=C\C(=O)OCCCCCCCCC(=O)O)C[C@@H]1OC[C@H](C[C@@H]2O[C@H]2[C@@H](C)[C@H](C)O)[C@@H](O)[C@H]1O [Pseudomonic acid]', -0.0143),
  ('Clc1ccc(COC(Cn2ccnc2)c2ccc(Cl)cc2Cl)c(Cl)c1 (stereo not drawn) [Miconazole] + CN(C)c1cc(NC(=O)CNC(C)(C)C)c(O)c2c1C[C@H]1C[C@H]3[C@H](N(C)C)C(O)=C(C(N)=O)C(=O)[C@@]3(O)C(O)=C1C2=O [Tigecycline]', 0.0412);

Problem: // lookup Bliss interaction score | system=S. aureus Newman | key= Oc1cc(Cl)ccc1Oc1ccc(Cl)cc1Cl [Triclosan] + COc1cc(Cc2cnc(N)nc2N)cc(OC)c1OC [Trimethoprim]
Result: 0.0267

Problem: // lookup Bliss interaction score | system=S. aureus Newman | key= O=C(O)[C@H]1/C(=C/CO)O[C@@H]2CC(=O)N21 [Clavulanic] + CN1C2=CC=CC=C2N=C3C1=CC=CC3=O [Pyocyanin]
Result: 0.0849

Problem: // lookup Bliss interaction score | system=S. aureus Newman | key= Cn1c2cccc(=O)c-2nc2ccccc21 [Pyocyanin] + COc1cc(Cc2cnc(N)nc2N)cc(OC)c1OC [Trimethoprim];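 also: first quartile when negative (synergy) and third quartile when positive (antagonism)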
Result: 0.123

Problem: // lookup Bliss interaction score | system=S. aureus Newman | key= CC[C@H]1OC(=O)[C@H](C)[C@@H](O[C@H]2C[C@@](C)(OC)[C@@H](O)[C@H](C)O2)[C@H](C)[C@@H](O[C@@H]2O[C@H](C)C[C@H](N(C)C)[C@H]2O)[C@](C)(O)C[C@@H](C)CN(C)[C@H](C)[C@@H](O)[C@]1(C)O [Azithromycin] + CC(=O)O[C@H]1C[C@@]2(C)[C@@H](C[C@@H](O)[C@H]3[C@@]4(C)CC[C@@H](O)[C@@H](C)[C@@H]4CC[C@@]32C)/C1=C(\CCC=C(C)C)C(=O)O [Fusidic acid];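 also: first quartile when negative (synergy) and third quartile when positive (antagonism)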
Result: 0.0362

Problem: // lookup Bliss interaction score | system=S. aureus Newman | key= CC1=C(C(=O)O)N2C(=O)[C@@H](NC(=O)[C@H](N)c3ccccc3)[C@H]2SC1 [Cephalexin] + CCC[C@@H]1C[C@@H](C(=O)N[C@@H]([C@H]2O[C@H](SC)[C@H](O)[C@@H](O)[C@H]2O)[C@@H](C)O)N(C)C1 [Lincomycin];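 also: first quartile when negative (synergy) and third quartile when positive (antagonism)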
Result: 0.0797

Problem: // lookup Bliss interaction score | system=S. aureus Newman | key= CC[C@H]1OC(=O)[C@H](C)[C@@H](O[C@H]2C[C@@](C)(OC)[C@@H](O)[C@H](C)O2)[C@H](C)[C@@H](O[C@@H]2O[C@H](C)C[C@H](N(C)C)[C@H]2O)[C@](C)(O)C[C@@H](C)CN(C)[C@H](C)[C@@H](O)[C@]1(C)O [Azithromycin] + CC[C@H]1OC(=O)[C@H](C)[C@@H](O[C@H]2C[C@@](C)(OC)[C@@H](O)[C@H](C)O2)[C@H](C)[C@@H](O[C@@H]2O[C@H](C)C[C@H](N(C)C)[C@H]2O)[C@](C)(OC)C[C@@H](C)C(=O)[C@H](C)[C@@H](O)[C@]1(C)O [Clarithromycin];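 also: first quartile when negative (synergy) and third quartile when positive (antagonism)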
Result: -0.0536
